Experimental system: Spike protein of SARS-CoV-2 strain XBB.1.16 (hCoV-19/France/GES-IPP7712/2023) (SARS-CoV-2)
Assay name: cell-based or functional assay
So I've got a bunch of binders here, and I need their IC50, S-Fuse neutralization of live virus values.
One number for each entry, in µg/mL.

Binder | Reported
SPK002M A2 antibody (antibody, human IgG1, kappa, V domains shown) VH: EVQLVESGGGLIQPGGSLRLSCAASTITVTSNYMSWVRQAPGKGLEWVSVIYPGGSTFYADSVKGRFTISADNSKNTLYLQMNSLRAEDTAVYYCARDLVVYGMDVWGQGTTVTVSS VL: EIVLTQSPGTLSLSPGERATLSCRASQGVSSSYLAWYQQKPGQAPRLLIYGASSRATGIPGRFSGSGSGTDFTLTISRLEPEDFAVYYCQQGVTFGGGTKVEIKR | 0.33
SPK002M B1 antibody (antibody, human IgG1, kappa, V domains shown) VH: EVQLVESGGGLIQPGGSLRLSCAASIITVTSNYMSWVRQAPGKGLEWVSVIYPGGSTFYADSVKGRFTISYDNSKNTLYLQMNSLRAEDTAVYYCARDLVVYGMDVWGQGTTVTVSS VL: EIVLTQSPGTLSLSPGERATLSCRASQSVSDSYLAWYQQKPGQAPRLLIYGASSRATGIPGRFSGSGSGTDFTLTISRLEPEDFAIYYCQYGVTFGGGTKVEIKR | 0.18

# evaluate next
Problem: Any idea what IC50, S-Fuse neutralization of live virus was measured for SPK002M C3 antibody (antibody, human IgG1, kappa, V domains shown) VH: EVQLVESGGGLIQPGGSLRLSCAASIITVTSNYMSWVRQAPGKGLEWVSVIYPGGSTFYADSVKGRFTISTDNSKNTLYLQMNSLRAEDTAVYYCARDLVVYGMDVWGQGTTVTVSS VL: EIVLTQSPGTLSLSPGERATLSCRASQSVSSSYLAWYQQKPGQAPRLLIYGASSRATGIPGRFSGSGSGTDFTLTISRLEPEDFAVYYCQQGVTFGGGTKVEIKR ?
Solution: 0.3
